metric: pKi
Interpret pKi as the negative base-10 log of the concentration measured in mol/L.

Ask: # return pKi for O=S(=O)(c1ccc2c(c1)CNC(CF)C2)N1CCSCC1 (racemic) , test system: Alpha-2A adrenergic receptor (Rattus norvegicus, UniProt P22909)
Sequence (P22909 whole entry): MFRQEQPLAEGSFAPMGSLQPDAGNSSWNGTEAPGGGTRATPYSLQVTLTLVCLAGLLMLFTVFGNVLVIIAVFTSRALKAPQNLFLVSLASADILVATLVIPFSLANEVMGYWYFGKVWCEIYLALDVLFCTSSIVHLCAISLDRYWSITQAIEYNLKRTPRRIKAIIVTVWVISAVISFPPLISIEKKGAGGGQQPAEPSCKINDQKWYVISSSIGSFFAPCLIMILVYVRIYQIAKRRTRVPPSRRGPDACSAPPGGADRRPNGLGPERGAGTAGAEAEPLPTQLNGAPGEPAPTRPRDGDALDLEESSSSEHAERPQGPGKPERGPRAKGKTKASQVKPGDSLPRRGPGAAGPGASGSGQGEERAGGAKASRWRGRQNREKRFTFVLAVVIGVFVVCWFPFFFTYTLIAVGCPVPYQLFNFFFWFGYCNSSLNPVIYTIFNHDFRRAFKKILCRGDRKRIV
Result: 3.72

Ask: Param request: pKi | system Alpha-2A adrenergic receptor (Rattus norvegicus, UniProt P22909) | item `O=S(=O)(Nc1ccc(Cl)cc1)c1ccc2c(c1)CN[C@H](CF)C2`
Result: 3.82

Ask: Provide pKi, system Alpha-2A adrenergic receptor (Rattus norvegicus, UniProt P22909), entry `O=S(=O)(Nc1ccc(Cl)cc1)c1ccc2c(c1)CN[C@@H](CF)C2`
Result: 3.85

Ask: For Alpha-2A adrenergic receptor (Rattus norvegicus, UniProt P22909), give pKi of the listed compound: `O=S(=O)(NCC(F)(F)F)c1ccc2c(c1)CN[C@@H](CF)C2`
Result: 3.00

Ask: With Alpha-2A adrenergic receptor (Rattus norvegicus, UniProt P22909) as the test system, provide measured pKi for this compound: `O=S(=O)(c1ccc2c(c1)CN[C@@H](CF)C2)N1CCSCC1`
Result: 3.70

Ask: Enter measured pKi, system Alpha-2A adrenergic receptor (Rattus norvegicus, UniProt P22909), for the compound shown: COCCCNS(=O)(=O)c1ccc2c(c1)CNC(CF)C2 (racemic)
Result: 3.12

Ask: Give measured pKi for NS(=O)(=O)c1ccc2c(c1)CNC(CF)C2 (racemic) (Alpha-2A adrenergic receptor (Rattus norvegicus, UniProt P22909)).
Result: 3.17

Ask: # return pKi for O=S(=O)(NCC(F)(F)F)c1ccc2c(c1)CNC(CF)C2 (racemic) , test system: Alpha-2A adrenergic receptor (Rattus norvegicus, UniProt P22909)
Result: 2.92

Ask: Quote Alpha-2A adrenergic receptor (Rattus norvegicus, UniProt P22909) pKi for entry `CCCNS(=O)(=O)c1ccc2c(c1)CN[C@@H](CF)C2` .
Result: 3.24

Ask: Provide Alpha-2A adrenergic receptor (Rattus norvegicus, UniProt P22909) pKi reading for O=S(=O)(Nc1ccc(Cl)cc1)c1ccc2c(c1)CNC(CF)C2 (racemic) .
Result: 3.85

Ask: # lookup: Alpha-2A adrenergic receptor (Rattus norvegicus, UniProt P22909) pKi, key = `CCNS(=O)(=O)c1ccc2c(c1)CN[C@@H](CF)C2`
Result: 3.26
